# Test system: HEK293T (UBE3A T485A transfected, BAR Wnt reporter)
# ASSAY NOTES: Wnt reporter firefly/Renilla luciferase ratio relative to plate median (fold (linear ratio)); higher = more Wnt/beta-catenin reporter activation
# EXPERIMENTAL CONDITIONS: concentration: 100 uM; 24 h
Whole data set: some 1,100 compounds, median “Wnt reporter firefly/Renilla luciferase ratio relative to plate median” near 1.1, cut for the highest 2% near 1.6. This is one part of a sample in which the highest values are shown more often than they occur.
// values below are reported Wnt reporter firefly/Renilla luciferase ratio
READOUT LABEL: Wnt reporter firefly/Renilla luciferase ratio

COMPOUND: NC(CCCP(=O)(O)O)C(=O)O (racemic)
MEASURED: 1.69

COMPOUND: CCCCC(CC)C(=O)O (centres undefined)
MEASURED: 1.2

COMPOUND: Cc1nc(-c2ccc3c(c2)CCN(CCC2CCC(NC(=O)/C=C/c4ccc(F)cc4)CC2)CC3)no1.Cl (centres undefined)
MEASURED: 0.983

COMPOUND: CCCCC(CC)COC(=O)CC(C(=O)OCC(CC)CCCC)S(=O)(=O)[O-].[Na+] (centres undefined) [Docusate sodium]
MEASURED: 0.789

COMPOUND: CCCCCCCCCCCCc1ccccc1
MEASURED: 0.984

COMPOUND: CCCC(CCC)C(=O)O
MEASURED: 1.69

COMPOUND: Nc1nc(=O)c2nc(CNc3ccc(C(=O)N[C@@H](CCC(=O)O)C(=O)O)cc3)cnc2[nH]1
MEASURED: 1.26

COMPOUND: CS(=O)(=O)c1ccc([C@@H](C[C@H]2CCC(=O)C2)C(=O)Nc2cnccn2)cc1Cl
MEASURED: 1.3

COMPOUND: CCCCCCC(=O)O
MEASURED: 0.917
